- Tested on: murine TTC39C mRNA
- assay-notes: Dose-dependent antisense inhibition of murine TTC39C in mouse primary hepatocytes
- Type: cell-based
- condition-label: 8000.0 nM, electroporation, ~16 h
Oligonucleotides are written 5' to 3', each unit as a sugar letter and its base; * is a phosphorothioate linkage, no mark a phosphodiester; rarer units and linkages stand in square brackets, end groups in braces. Plain capitals give the bases only. e = 2'-O-(2-methoxyethyl) (MOE); [5mC] = 5-methylcytosine; d = 2'-deoxy (DNA)
experimental-endpoint: percent inhibition of TTC39C mRNA (%)

substance="ISIS 474532: 5-10-5 MOE gapmer antisense oligonucleotide targeting murine TTC39C (antisense eG*eT*eT*eG*eT*dG*d[5mC]*d[5mC]*d[5mC]*d[5mC]*dA*dT*d[5mC]*d[5mC]*dA*e[5mC]*eA*eT*e[5mC]*eA)" experimental_endpoint="percent inhibition of TTC39C mRNA" output_unit=% recorded_result=97
substance="ISIS 474610: 5-10-5 MOE gapmer antisense oligonucleotide targeting murine TTC39C (antisense eT*eT*eA*eA*eG*dA*dA*d[5mC]*dA*dA*dG*dT*dT*dG*dT*eG*e[5mC]*e[5mC]*e[5mC]*e[5mC])" experimental_endpoint="percent inhibition of TTC39C mRNA" output_unit=% recorded_result=71
substance="ISIS 474600: 5-10-5 MOE gapmer antisense oligonucleotide targeting murine TTC39C (antisense e[5mC]*e[5mC]*eA*eA*eG*dG*dG*d[5mC]*dT*d[5mC]*dT*dT*d[5mC]*d[5mC]*dG*eT*e[5mC]*eA*eG*e[5mC])" experimental_endpoint="percent inhibition of TTC39C mRNA" output_unit=% recorded_result=89
substance="ISIS 474515: 5-10-5 MOE gapmer antisense oligonucleotide targeting murine TTC39C (antisense eT*e[5mC]*e[5mC]*e[5mC]*eT*dG*dA*dA*dG*d[5mC]*d[5mC]*dG*dT*dT*dG*eT*eT*eG*eA*eG)" experimental_endpoint="percent inhibition of TTC39C mRNA" output_unit=% recorded_result=94
